B1: TAF7L (parent)
chain: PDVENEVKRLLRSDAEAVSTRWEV

# Variants of: B1
# Assay notes: protein stability index of a GFP-peptide fusion (GPS, HEK-293T) (PSI 1-6); higher = more stable;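 also: lentivirally expressed fusions sorted by FACS into six bins by GFP to DsRed ratio, PSI derived from sequencing read proportions per bin multiplied by bin number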
# Measurement setup: c terminus: a fixed tail appended
Parameter measured: protein stability index
One number for each entry.

Consider the following illustrative entries.
Variant annotation: V3G
Endpoint value: 3.05
--
Variant annotation: P1I
Endpoint value: 2.79
--
Variant annotation: K8Y
Endpoint value: 2.23

Below: the item to evaluate.
Req: Please give the measured protein stability index for this variant: "S13E"
Resp: 4.19
